- Assayed System: T1, human SPNS2 (human, UniProt Q8IVW8 1-549)
- T1 sequence: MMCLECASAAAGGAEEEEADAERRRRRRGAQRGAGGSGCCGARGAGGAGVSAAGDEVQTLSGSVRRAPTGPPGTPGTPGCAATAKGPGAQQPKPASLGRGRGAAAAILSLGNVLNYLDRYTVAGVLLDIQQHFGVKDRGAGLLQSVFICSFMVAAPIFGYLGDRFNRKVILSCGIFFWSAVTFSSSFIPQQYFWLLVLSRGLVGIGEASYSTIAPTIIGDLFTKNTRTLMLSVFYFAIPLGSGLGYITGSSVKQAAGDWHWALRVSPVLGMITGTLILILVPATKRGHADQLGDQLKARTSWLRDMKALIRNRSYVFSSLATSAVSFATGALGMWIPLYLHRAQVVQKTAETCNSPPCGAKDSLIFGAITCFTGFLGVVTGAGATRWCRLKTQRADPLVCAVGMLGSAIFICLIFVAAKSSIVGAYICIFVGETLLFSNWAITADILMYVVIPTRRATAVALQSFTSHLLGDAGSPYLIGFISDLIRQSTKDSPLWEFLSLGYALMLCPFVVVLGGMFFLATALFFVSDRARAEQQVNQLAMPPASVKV
- Test Summary: cell-based or functional assay
Endpoint Name: pIC50, S1P transport inhibition (S1PR3 Ca2+ FLIPR bioassay)

>  <Binder>
50-0704C (antibody, IgG2b, V domains shown) VH: EVQLVGSGGGLVQPGRSMKLSCEASGFTFSNHYMAWVRQAPTKGLEWVATISTGGGNTYYRDSVKGRFTISRDNARSTLSLQMDSLRSEDTATYYCARQDYSNYMGGFAYWGQGTLVTVSS VL: QFVLTQPNSVSTNLGSTVKLSCTRSIGNIGNNYVNWYKQYEGRSPTTMIYRDDERPDGVPDRFSGSIDRSSNSALLTINSVQTEDEADYFCQSFSSGIFIFGGGTKLTVL

>  <Result>
7.2 pIC50 (M)

$$$$
>  <Binder>
18-0211B (antibody, IgG2b, V domains shown) VH: AVQLVGSGGGLVQPGRSMKLSCEASGFTFSNHYMAWVRQAPTRGLEWVATISTGGGNTYYRDSVKGRFTISRDNTRSTLSLQMDSLRSEDTATYYCTRQDYTNYMGGFAYWGQGTLVTVSS VL: QFVLTQPNSVSTNLGSTVKLSCTRSIGNIGNNYVNWYKQYEGRSPTTLIYRDDERPDGVPDRFSGSIDRSSNSALLTINSVQTEDGADYFCQSFSSGIFIFGGGTTLTVL

>  <Result>
7.6 pIC50 (M)

$$$$
>  <Binder>
96-1403F (antibody, IgG2b, V domains shown) VH: EVQLVETGGGLVRPGSSLKLSCATSGFTFSDTWMSWVRQAPGKGLEWVALIKDKNSNSEANYAESIKGRFTISRDDSKSRVYLQMNTLRDQDTATYYCTRHEDFYYYSGYYFDYWGQGVMVTVSS VL: DIVLTQSPPTLSVTPGESVSLSCRASQGISTSIHWYQQRSNESPRLLIKYASQSIAGIPSRFSGSGSGTDFILSINRVESEDFSVYYCQQTYSLPLTFGPGTKLEVKR

>  <Result>
6.9 pIC50 (M)

$$$$
>  <Binder>
37-0511F (antibody, IgG2b, V domains shown) VH: EVHLQQSGAALVRPRASVKLSCKVSGDSISRYYVHFVKQRPGQGLEWIGRIDPEDDTTKYSEKFKNRATLTADASSDTASLILSGLTSDDTATYFCSTLTGLDYWGQGVMVTVSS VL: DIQMTQSPPVLSTSVGDRVTLRCKPSQNVHSKLDWYQQKHGEAPKLLIYYTHNLQTGIPSRFSGSGSGTDYTLTISSLQPEDVATYYCFQYYSGWTFGGGTKLEMKR

>  <Result>
7.3 pIC50 (M)

$$$$
>  <Binder>
33-0503E (antibody, IgG2b, V domains shown) VH: EVQLVESGGGLVRPGGSMKLSCGASGFIFDNYYMTWVRQAPTKGLEWVASISSSGGNTYYRDSVRGRFTISRDNAGNTLSLQMGSLRAEDTATYHCAKEGYRGRYFDYWGQGVMVTVSS VL: QVVLTQPNSVSTNLGSTVKLSCKRTTGNIGSNYVNWYQQHEGRSPTTMIYRDDERPDGVPDRFSGSIDRSSNSALLTINNVQTEDEAEYFCQSYSSGIIFGGGTKLTVL

>  <Result>
7 pIC50 (M)

$$$$
>  <Binder>
89-1207D (antibody, IgG2b, V domains shown) VH: EVQLVGSGGGLVQPGRSMKLSCEASGFTFSNHYMAWVRQAPTKGLEWVATISTGGGNTYYRDSVKGRFTISRDNARSILSLQMDSLRSEDTATYYCARQDYSNYMGGFAYWGQGTLVTVSS VL: QFVLTQPNSVSTNLGSTVKLSCTRSIGNIGNNYVNWYKQYEGRSPTTMIYRDDERPDGVPDRFSGSIDRSSNSALLTINNVQTEDEADYFCQSFSSGMFIFGGGTKLTVL

>  <Result>
7.2 pIC50 (M)

$$$$
>  <Binder>
64-0807A (antibody, IgG2b, V domains shown) VH: EVQVVESGGGLVQPGRSMKLSCAALGFTFRDYYMAWVRQTPTKGLEWVAAISTGGGNTYYRDSVKGRFTISRDNAKSTLYLQMDSLRSDDTATYYCARNPYGNYFDYWGQGVMVTVSS VL: QFVLSQPNSVSTNLGSTVKLSCKRSTGNIGSNYVHWYQRHEGRSPTTLIYRDDKRPNGVPDRFSGSIDRSSNSALLTINNVQTEDEADYFCQSYSGGMYLFGGGTKLTVL

>  <Result>
7.4 pIC50 (M)

$$$$
>  <Binder>
84-1111F (antibody, IgG2b, V domains shown) VH: EVQVVESGGGLVQPGRSMKLSCAALGFTFRDYYMAWVRQTPTKGLEWVAAISTGGGNTYYRDSVKGRFTISRDNAKSTLYLKMDSLRSDDTATYYCARNPYGNYFDYWGQGVMVTVSS VL: QFVLSQPNSVSTNLGSTVKLSCKRSTGNIGSNYVHWYQRHEGRSPTTMIYRDDKRPNGVPDRFSGSIDRSSNSALLTINNVQTEDEADYFCQSYSGGMYLFGGGTTLTVL

>  <Result>
7.7 pIC50 (M)

$$$$
>  <Binder>
83-1110B (antibody, IgG2b, V domains shown) VH: EVQLQQSGPEFVRPGTSVKFSCKVSGGSITSYFIHFVKQRPGQGLEWIGKIDPEDDSTKYGEKFKNKATLTADTSSNTAFLKLSSLTSEDTAIYFCTTLTGLDYWGQGVMVTVSS VL: DIQMTQSPPVLSAAVGDRVTLSCKASRSLNKNLDWYQQKHGETPKLLIYHTHNLQTGIPSRFSGSGSDTDYTLTISSLQTEDVATYYCYQYHSGWTFGGGTRLELRR

>  <Result>
7.6 pIC50 (M)

$$$$
>  <Binder>
65-0810G (antibody, IgG2b, V domains shown) VH: EVHLVESGGGLVQPGRSMKLSCTASGFTFNNYYMAWVRQAPTKGLEWVASISTGGGYTYYRDSVKGRFTISRDNTGNTLYLQMDSLRSEDTATYYCARCWELPYWGQGVMVTVSS VL: QFVLTQPNSVSTNLGSTVKLSCRRSSGNIGNNYVNWYRQHEGRSPTTMIYRDDTRPDGVPNRFSGSIDRSSNSALLTINNVRPEDEAYYFCQSYSGSIYIFGGGTKLTVL

>  <Result>
7.2 pIC50 (M)

$$$$
